System: Alternaria solani
Assay: Alternaria test (tomato) / protective
Format: in vivo
Conditions: 500 ppm active compound, protective spray, evaluated 7 days after inoculation
Experimental: Alternaria Test (Tomato)/Protective Solvent: 49 parts by weight of N,N-dimethylformamide Emulsifier: 1 part by weight of alkylaryl polyglycol ether To produce a suitable preparation of active compound, 1 part by weight of active compound is mixed with the stated amounts of solvent and emulsifier, and the concentrate is diluted with water to the desired concentration. […]
We use 90% as the dividing line for efficacy: on or above the line is Satisfied, below is Not satisfied.

Worked examples, 5 compounds total:
FC(F)Cn1cc(-c2ccncc2)c(-c2ccc(Br)s2)n1 [Example 384] ... Satisfied
C#CCn1cc(-c2ccncc2)c(-c2ccc(Cl)s2)n1 [Example 47] ... Satisfied
CC(C)OC(=O)Nc1cc(-c2cn(C)nc2-c2ccc(Cl)s2)ccn1 [Example 274] ... Not satisfied
CCOCCn1cc(-c2ccncc2)c(-c2ccc(F)s2)n1 [Example 374] ... Satisfied
CC(C)n1cc(-c2ccnc(NC(=O)c3ccccc3)c2)c(-c2ccc(Cl)s2)n1 [Example 260] ... Not satisfied

// inclusive: efficacy at least 90%? input: CCC(=O)Nc1cc(-c2cn(CC(C)C)nc2-c2ccc(Cl)s2)ccn1 [Example 396] Satisfied

// inclusive: efficacy at least 90%? input: FCCn1cc(-c2ccncc2)c(-c2cc3ccsc3s2)n1 [Example 367] Not satisfied

// inclusive: efficacy at least 90%? input: FC(F)Cn1cc(-c2ccncc2)c(-c2cc3ccsc3s2)n1 [Example 371] Not satisfied

// inclusive: efficacy at least 90%? input: CC(C)n1cc(-c2ccncc2)c(-c2ccc(F)s2)n1 [Example 108] Satisfied

// inclusive: efficacy at least 90%? input: CCC(C)n1cc(-c2ccnc(NC(C)=O)c2)c(-c2ccc(Cl)s2)n1 (stereo not drawn) [Example 110] Satisfied

// inclusive: efficacy at least 90%? input: CCC(=O)Nc1cc(-c2cn(C(C)C)nc2-c2cccs2)ccn1 [Example 175] Not satisfied

----------
Experiment: physchem
Details: pH 2.7
Measured log p accompanies every entry in the list below.

# annotated cases, reported log p shown
Cc1csc(-c2ccnn2C(C)C)c1 ... 3.18
CCCc1cc(-c2cccs2)n(C)n1 ... 2.9
O=C(Cc1ccnc(Cl)n1)c1ccc(Cl)s1 ... 2.6
CSc1nccc(C(=CN(C)C)C(=O)c2ccc(Cl)s2)n1 ... 2.27
CCn1ccc(-c2cc(C)cs2)n1 ... 2.64

Need log p, item `CCCc1cc(-c2sccc2C)nn1C` 3.34

Need log p, item `CCCc1cc(-c2sccc2C)n(C)n1` 3.34

Need log p, item `CC(C)n1cc(-c2ccncc2)c(-c2ccc(F)s2)n1` 1.53

Need log p, item `CCn1cc(I)c(-c2cccs2)n1` 3.13

----------
Details: pH 2.7
Marks after values point to notes of the source that are not given here.
Measured log p accompanies every entry in the list below.

# annotated cases, reported log p shown
FCCn1cc(-c2ccncc2)c(-c2ccc(F)s2)n1 ... 1.16^[b]
N#CCn1cc(-c2ccncc2)c(-c2ccc(Br)s2)n1 ... 1.51^[b]
CC#CCn1cc(-c2ccncc2)c(-c2ccc(Cl)s2)n1 ... 1.81^[b]
C=CCn1cc(-c2ccncc2)c(-c2ccc(Cl)s2)n1 ... 1.65^[b]
CCOCCn1cc(-c2ccncc2)c(-c2ccc(Cl)s2)n1 ... 1.69^[b]
CCn1cc(-c2ccnc(NC(C)=O)c2)c(-c2ccc(Cl)s2)n1 ... 2.1^[b]

Attention now shifts to the item below.
Need log p, item `C#CCn1cc(-c2ccncc2)c(-c2sccc2Cl)n1` 1.11^[b]
